Read-out: Plasminogen activator inhibitor-1 (PAI1), SERPINE1 (gene 5054)
Protocol Description: BSK_MyoF_PAI1: BioMAP Diversity Plus: MyoF Assay for Plasminogen activator inhibitor-1 (PAI1) Biomarker Activity (AID 2284256)
Stated Conditions: primary human lung fibroblasts
The source made the active and inactive calls. The calls were made as follows: active = hit-call score of the fitted dose curve at least 0.9, where 1 is the maximum; inactive = score below 0.9.
Possible outcomes: 1 (active), 0 (inactive)

Smiles Record	Label
OCCC(F)(F)C(F)(F)C(F)(F)C(F)(F)C(F)(F)C(F)(F)F	0
FC(F)(I)C(F)(F)C(F)(F)C(F)(F)C(F)(F)C(F)(F)I	1
CCCCCCCCCCCCCC[N+](C)(C)C	1
C=C(C)C(=O)OCCC(F)(F)C(F)(F)C(F)(F)C(F)(F)C(F)(F)C(F)(F)F	0

----------
Read-out: Lipoprotein lipase (LPL), LPL (gene 4023)
Protocol Description: LTEA_HepaRG_LPL: Life Technologies and Expression Analysis (LTEA) Assay for Lipoprotein lipase (LPL) using HepaRG (AID 2283515)
Stated Conditions: mRNA level, 48 h; actives raise or lower the signal
Active and inactive are the calls of the source. Rule for the calls: active = hit-call score of the fitted dose curve at least 0.9, where 1 is the maximum; inactive = score below 0.9.
Possible outcomes: active, inactive

Compound	Label
Cc1cc(CCN2CCN(c3nsc4ccccc34)CC2)cc2c1NC(=O)CC2(C)C	active
N#C[C@@H]1CC(F)(F)CN1C(=O)CNC1CC2CCC(C1)N2c1ncccn1 (some centres not stated)	inactive
CC(C)(C)c1ccc(O)c(C(C)(C)C)c1	inactive
O=c1c(-c2ccc(O)cc2)coc2cc(O)ccc12	inactive
c1ccc2c(c1)ccc1ccccc12	inactive
Cc1cc(C)c(O)c(C)c1	inactive
O=C(O)c1ccccc1C(c1ccc(O)cc1)c1ccc(O)cc1	inactive
CC(C)(C)c1cccc(C(C)(C)C)c1O	inactive
CC(C)(C)CC(C)(C)c1ccc(O)c(-n2nc3ccccc3n2)c1	inactive
O=C(OCCOCCOC(=O)c1ccccc1)c1ccccc1	inactive
CCCCCCCCOC(=O)CCCCCCCCC(=O)OCCCCCCCC	inactive
C=C(C)C(=O)OCCC(F)(F)C(F)(F)C(F)(F)C(F)(F)C(F)(F)C(F)(F)F	inactive

----------
Read-out: Ezrin (EZR), EZR (gene 7430)
Protocol Description: LTEA_HepaRG_EZR: Life Technologies and Expression Analysis (LTEA) Assay for Ezrin (EZR) using HepaRG (AID 2283491)
Stated Conditions: mRNA level, 48 h; actives raise or lower the signal
Calls of active or inactive are those of the source. Rule for the calls: active = hit-call score of the fitted dose curve at least 0.9, where 1 is the maximum; inactive = score below 0.9.
Outcomes: YES (active), NO (inactive)

Molecule	Label
COc1ccc([N+](=O)[O-])cc1N	NO
Oc1cccc(O)c1	NO
CCc1ccc(CCOc2ccc(CC3SC(=O)NC3=O)cc2)nc1 (configuration not stated)	YES
CCC(=C(c1ccc(O)cc1)c1ccc(OCCN(C)C)cc1)c1ccccc1	NO
CN1CCN(c2ccccc2/C=C2\SCCN(c3ccc(Cl)c(Cl)c3)C2=O)CC1	YES
C#C[C@]1(O)CC[C@H]2[C@@H]3CCC4=CC(=O)CC[C@@H]4[C@H]3CC[C@@]21C	NO
COC(=O)CCCCC(=O)OC	NO
COCC(C)O (configuration not stated)	NO
CC1=C(/C=C/C(C)=C/C=C/C(C)=C/C(=O)O)C(C)(C)CCC1	YES
CC[C@H](C)[C@@H](C(=O)O)n1sc2ccccc2c1=O	NO
CC(C)(C)c1cc(C(C)(C)C)c(O)c(C(C)(C)C)c1	NO
NC(=O)N(O)[C@@H]1C=C[C@H](Oc2cccc(Oc3ccc(F)cc3)c2)C1	NO
c1ccc2c(c1)Cc1ccccc1-2	NO
CC(C)(C)c1cccc(C(C)(C)C)c1O	NO
CCCCCCCCCCCCc1ccccc1S(=O)(=O)O	NO
CCCCCCCCCCCCCCCS(=O)(=O)Oc1ccccc1	NO
O=C(OCCOCCOC(=O)c1ccccc1)c1ccccc1	NO
C[C@@H]1C[C@H]2[C@@H]3CCC4=CC(=O)C=C[C@]4(C)[C@@]3(F)[C@@H](O)C[C@]2(C)[C@@]1(O)C(=O)COP(=O)(O)O	NO
C=C(C)C(=O)OCCC(F)(F)C(F)(F)C(F)(F)C(F)(F)C(F)(F)C(F)(F)F	NO
O=C(O)Cc1cc(I)c(Oc2cc(I)c(O)c(I)c2)c(I)c1	NO
CCCCCCC(=O)O	NO
OCCC(F)(F)C(F)(F)C(F)(F)C(F)(F)C(F)(F)C(F)(F)C(F)(F)C(F)(F)F	NO
O=c1c(-c2ccc(O)cc2)coc2cc(O)ccc12	NO
CCCCCCCCC(=O)O	NO
CCCCC(CC)COC(=O)CCCCC(=O)OCc1ccccc1 (configuration not stated)	NO
O=[N+]([O-])c1ccc(O)cc1	NO
CC(=O)NC1(c2cccc(F)c2)CCN(CC[C@@]2(c3ccc(Cl)c(Cl)c3)CN(c3ccccc3)C(=O)CO2)CC1	YES
CCCCCCCC(=O)O	NO
N#C[C@@H]1CC(F)(F)CN1C(=O)CNC1CC2CCC(C1)N2c1ncccn1 (some centres not stated)	NO
CCCOc1sc(C(=O)N2CCC(c3cc(CN)ccc3F)CC2)c(C)c1Br	NO
CCOC(=O)CC(O)(CC(=O)OCC)C(=O)OCC	NO
CCN(CC)CCNc1ccc(CNC=O)c2sc3ccc(OC)cc3c(=O)c12	YES
CC(C)(C)CC(C)(C)c1ccc(O)c(-n2nc3ccccc3n2)c1	NO
OC1CCC(C2CCCCC2)CC1 (configuration not stated)	NO
CC(C)CCCCCCOC(=O)CCCCC(=O)OCCCCCCC(C)C	NO
CCC(C)(C)C1CCC(O)CC1 (configuration not stated)	NO
Nc1cccc2c(N)cccc12	NO
